- Test system: breast line MDA468
- method notes: In vitro cell culture growth assay (MTS), MDA468
- Assay type: cell-based, human
- assay context: Homo sapiens, 72 h, MDA468 cells, three days after drug treatment
Task for the reader: assign each of the following compounds its reported pIC50.
Please note pIC50 is a logarithmic value: minus log10 of concentration in mol/L. Answer with that number alone.

I have this compound here, `Clc1ccc(CN2CCC(n3ncc4c(N5CCOCC5)nc(-c5ccc6[nH]ccc6c5)nc43)CC2)cn1` , and I need its recorded pIC50. 5.55

I have this compound here, `COC(=O)Nc1ccc(-c2nc(N3CCOCC3)c3cnn(C4CCN(Cc5ccc(F)cc5)CC4)c3n2)cc1` , and I need its recorded pIC50. 5.59

I have this compound here, `CN(C)CCCn1ncc2c(N3CCOCC3)nc(-c3ccc4[nH]ccc4c3)nc21` , and I need its recorded pIC50. 4.82

I have this compound here, `O=C1CCCN1CCn1ncc2c(N3CCOCC3)nc(-c3ccc4[nH]ccc4c3)nc21` , and I need its recorded pIC50. 4.22

I have this compound here, O=C(Nc1ccc(-c2nc(N3CCOCC3)c3cnn(C4CCN(C(=O)c5cccnc5)CC4)c3n2)cc1)Nc1ccccn1 [Example 345] , and I need its recorded pIC50. 6.15

I have this compound here, CNC(=O)Nc1ccc(-c2nc(N3CCOCC3)c3cnn(C4CCN(CC(=O)c5ccccc5)CC4)c3n2)cc1 [Compound 577] , and I need its recorded pIC50. 6.74

I have this compound here, `CNC(=O)Nc1ccc(-c2nc(N3CCOCC3)c3cnn(C4CCN(C(=O)c5ccc(Cl)nc5)CC4)c3n2)cc1` , and I need its recorded pIC50. 6.40

I have this compound here, `Nc1ccnc(-c2nc(N3CCOCC3)c3cnn(-c4ccccc4)c3n2)c1` , and I need its recorded pIC50. 4.22

I have this compound here, CNC(=O)Nc1ccc(-c2nc(N3CCOCC3)c3cnn(C4CCN(C(=O)c5ccccc5C)CC4)c3n2)cc1 [Example 356] , and I need its recorded pIC50. 7.00

I have this compound here, `CNC(=O)Nc1ccc(-c2nc(N3CCOCC3)c3cnn(C4CCN(C(=O)OC(C)C)CC4)c3n2)cc1` , and I need its recorded pIC50. 7.28

I have this compound here, `O=C(NCCO)Nc1ccc(-c2nc(N3CCOCC3)c3cnn(C4CCN(CCCCO)CC4)c3n2)cc1` , and I need its recorded pIC50. 4.52

I have this compound here, Oc1ccc(-c2nc(N3CCOCC3)c3cnn(C4CCN(Cc5ccccc5)CC4)c3n2)cc1 [Compound 232] , and I need its recorded pIC50. 5.40

I have this compound here, `Nc1ccc(-c2nc(N3CCOCC3)c3cnn(C4CCN(CCCCO)CC4)c3n2)cc1` , and I need its recorded pIC50. 4.52

I have this compound here, `CCNC(=O)Nc1ccc(-c2nc(N3CCOCC3)c3cnn(C4CCN(C(=O)OC)CC4)c3n2)cc1` , and I need its recorded pIC50. 7.15

I have this compound here, `O=C(Nc1ccc(-c2nc(N3CCOCC3)c3cnn(C4CCN(Cc5cccnc5)CC4)c3n2)cc1)OCCO` , and I need its recorded pIC50. 6.96

I have this compound here, `CCOC(=O)N1CCC(n2ncc3c(N4CCOC[C@@H]4C)nc(-c4ccc(NC(=O)Nc5ccncc5)cc4)nc32)CC1` , and I need its recorded pIC50. 6.42

I have this compound here, O=C(NCCF)Nc1ccc(-c2nc(N3CCOCC3)c3cnn(C4CCN(C(=O)c5cccnc5)CC4)c3n2)cc1 [Example 303] , and I need its recorded pIC50. 6.30

I have this compound here, O=C(NCCF)Nc1ccc(-c2nc(N3CCOCC3)c3cnn(-c4ccccc4)c3n2)cc1 [Compound 540] , and I need its recorded pIC50. 6.05

I have this compound here, `CNC(=O)Nc1ccc(-c2nc(N3CCOCC3)c3cnn(C4CCN(C(=O)c5ccc(C)nc5)CC4)c3n2)cc1` , and I need its recorded pIC50. 6.52

I have this compound here, `O=[N+]([O-])c1ccc(-c2nc(N3CCOCC3)c3cnn(-c4ccccc4)c3n2)cc1` , and I need its recorded pIC50. 4.22

I have this compound here, `COC(=O)Nc1ccc(-c2nc(N3CCOCC3)c3cnn(C4CCN(CCCCO)CC4)c3n2)cc1` , and I need its recorded pIC50. 4.99

I have this compound here, `CNC(=O)Nc1ccc(-c2nc(N3CCOCC3)c3cnn(C4CCN(Cc5cccc(F)c5)CC4)c3n2)cc1` , and I need its recorded pIC50. 6.70

I have this compound here, `COC(=O)N1CCC(n2ncc3c(N4CCOCC4)nc(-c4ccc(NC(=O)Nc5ccc(N6CCN(C)CC6)cc5)cc4)nc32)CC1` , and I need its recorded pIC50. 9.10

I have this compound here, NC(=O)Nc1ccc(-c2nc(N3CCOCC3)c3cnn(C4CCN(C(=O)c5cccnc5)CC4)c3n2)cc1 [Compound 546] , and I need its recorded pIC50. 5.74

I have this compound here, Nc1ccc(-c2nc(N3CCOCC3)c3cnn(C4CCC5(CC4)OCCO5)c3n2)cc1 [Compound 320] , and I need its recorded pIC50. 5.14

I have this compound here, O=C(Nc1ccccc1)Nc1ccc(-c2nc(N3CCOCC3)c3cnn(C4CCN(C(=O)c5ccccc5)CC4)c3n2)cc1 [Example 378] , and I need its recorded pIC50. 7.00

I have this compound here, O=C(NCCO)Nc1ccc(-c2nc(N3CCOCC3)c3cnn(C4CCN(Cc5ccccc5)CC4)c3n2)cc1 [Compound 510] , and I need its recorded pIC50. 7.30

I have this compound here, `CNC(=O)Nc1ccc(-c2nc(N3CCOCC3)c3cnn(C4CCN(C)CC4)c3n2)cc1` , and I need its recorded pIC50. 5.42

I have this compound here, `COC(=O)Nc1ccc(-c2nc(N3CCOCC3)c3cnn(C4CCN(C(=O)c5ccccc5)CC4)c3n2)cc1` , and I need its recorded pIC50. 6.30

----------
- system under test: PI3K (Homo sapiens, UniProt P42336)
- Sequence (P42336 whole entry): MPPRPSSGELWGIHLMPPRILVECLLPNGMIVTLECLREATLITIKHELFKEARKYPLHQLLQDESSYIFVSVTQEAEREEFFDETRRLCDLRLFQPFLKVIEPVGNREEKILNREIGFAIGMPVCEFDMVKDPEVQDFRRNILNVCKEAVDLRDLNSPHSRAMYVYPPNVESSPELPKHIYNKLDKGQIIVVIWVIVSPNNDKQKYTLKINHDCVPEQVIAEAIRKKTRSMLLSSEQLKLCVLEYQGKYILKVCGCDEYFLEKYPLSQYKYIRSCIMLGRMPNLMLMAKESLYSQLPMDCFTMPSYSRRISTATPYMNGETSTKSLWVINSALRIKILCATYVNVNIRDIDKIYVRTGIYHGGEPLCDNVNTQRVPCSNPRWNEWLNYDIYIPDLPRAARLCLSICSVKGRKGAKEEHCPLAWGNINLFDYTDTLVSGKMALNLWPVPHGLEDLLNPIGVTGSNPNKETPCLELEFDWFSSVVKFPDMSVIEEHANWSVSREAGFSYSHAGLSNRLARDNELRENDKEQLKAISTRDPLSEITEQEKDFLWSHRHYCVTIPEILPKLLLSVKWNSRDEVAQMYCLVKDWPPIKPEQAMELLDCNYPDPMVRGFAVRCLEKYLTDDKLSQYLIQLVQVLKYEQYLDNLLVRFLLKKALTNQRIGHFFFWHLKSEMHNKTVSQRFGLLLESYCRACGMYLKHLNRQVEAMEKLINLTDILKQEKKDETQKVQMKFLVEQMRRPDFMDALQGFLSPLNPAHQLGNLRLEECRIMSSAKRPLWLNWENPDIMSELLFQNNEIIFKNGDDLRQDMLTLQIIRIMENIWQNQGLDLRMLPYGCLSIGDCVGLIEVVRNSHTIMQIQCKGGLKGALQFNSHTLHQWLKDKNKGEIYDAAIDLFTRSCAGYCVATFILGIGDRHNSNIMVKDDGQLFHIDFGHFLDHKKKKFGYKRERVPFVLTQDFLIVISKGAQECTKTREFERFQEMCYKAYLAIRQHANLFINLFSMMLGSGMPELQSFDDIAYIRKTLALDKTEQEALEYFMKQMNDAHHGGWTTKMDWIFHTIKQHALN
- Sequence (P27986 whole entry partner): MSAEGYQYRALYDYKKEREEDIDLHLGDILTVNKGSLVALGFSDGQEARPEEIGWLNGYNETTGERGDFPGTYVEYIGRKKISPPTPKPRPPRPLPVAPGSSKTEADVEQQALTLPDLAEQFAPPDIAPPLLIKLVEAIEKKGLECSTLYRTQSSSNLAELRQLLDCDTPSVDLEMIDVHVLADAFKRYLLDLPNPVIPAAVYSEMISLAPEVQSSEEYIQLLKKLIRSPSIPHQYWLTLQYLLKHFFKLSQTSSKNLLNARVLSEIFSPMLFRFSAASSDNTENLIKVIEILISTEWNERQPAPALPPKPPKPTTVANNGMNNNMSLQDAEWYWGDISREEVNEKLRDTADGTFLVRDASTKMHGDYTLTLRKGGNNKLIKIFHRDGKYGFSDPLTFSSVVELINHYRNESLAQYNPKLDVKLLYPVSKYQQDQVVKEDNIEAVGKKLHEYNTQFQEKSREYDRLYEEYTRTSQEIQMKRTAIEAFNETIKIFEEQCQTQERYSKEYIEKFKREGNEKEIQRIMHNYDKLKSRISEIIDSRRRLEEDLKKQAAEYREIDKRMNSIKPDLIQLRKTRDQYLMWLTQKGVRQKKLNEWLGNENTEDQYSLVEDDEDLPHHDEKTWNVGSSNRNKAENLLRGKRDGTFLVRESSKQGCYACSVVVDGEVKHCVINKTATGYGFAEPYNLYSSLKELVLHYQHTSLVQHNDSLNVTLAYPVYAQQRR
- method notes: Fluorescence polarization assay for PI3K;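 also: PI3K kinase reaction on PIP2 with ATP, 30-60 min, product sensed by GST-GRP with red probe in fluorescence polarization (mP), controls without enzyme and at zero time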
- Assay type: biochemical
- assay context: PI3Kα; read-out: PI3Kα IC50
recorded metric: IC50 (nM)
The figure you give is taken to be in nM; do not add the unit.

I have this compound here, O=C(Nc1ccc(-c2nc(N3CCOCC3)c3cnn(C4CCN(C(=O)c5cccnc5)CC4)c3n2)cc1)Nc1ccccn1 [Compound 592] , and I need its recorded IC50. 260

I have this compound here, COC(=O)Nc1ccc(-c2nc(N3CCOCC3)c3cnn(C4CCN(C(=O)c5ccc(F)cc5)CC4)c3n2)cc1 [Example 445] , and I need its recorded IC50. 989

I have this compound here, c1ccc(CCN2CCC(n3ncc4c(N5CCOCC5)nc(-c5ccc6[nH]ccc6c5)nc43)CC2)cc1 [Compound 489] , and I need its recorded IC50. 3090

I have this compound here, `CCCOC(=O)N1CCC(n2ncc3c(N4CCOCC4)nc(-c4ccc(NC(=O)OC)cc4)nc32)CC1` , and I need its recorded IC50. 2770

I have this compound here, O=C(NCCO)Nc1ccc(-c2nc(N3CCOCC3)c3cnn(C4CCN(Cc5cccnc5)CC4)c3n2)cc1 [Compound 561] , and I need its recorded IC50. 162

I have this compound here, COC(=O)Nc1ccc(-c2nc(N3CCOCC3)c3cnn(C4CCN(Cc5ccccc5Cl)CC4)c3n2)cc1 [Compound 455] , and I need its recorded IC50. 786

I have this compound here, `CNCCOC(=O)N1CCC(n2ncc3c(N4CCOCC4)nc(-c4ccc(NC(=O)NC)cc4)nc32)CC1` , and I need its recorded IC50. 181

I have this compound here, `CC(C)C(=O)N1CCC(n2ncc3c(N4CCOCC4)nc(-c4ccc(NC(=O)NC5CC5)cc4)nc32)CC1` , and I need its recorded IC50. 2030

I have this compound here, CCNC(=O)Nc1ccc(-c2nc(N3CCOC(C)C3)c3cnn(C4CCN(C(=O)OC)CC4)c3n2)cc1 (stereo not drawn) , and I need its recorded IC50. 721

I have this compound here, `c1ccc(-n2ncc3c(N4CCOCC4)nc(-c4ccc(CN5CCOCC5)cc4)nc32)cc1` , and I need its recorded IC50. 822

I have this compound here, `CC(C)(C)OC(=O)N1CCC(n2ncc3c(N4CCOCC4)nc(-c4ccc(NC(=O)Nc5ccc(CO)cc5)cc4)nc32)CC1` , and I need its recorded IC50. 7

I have this compound here, O=C(NCCF)Nc1ccc(-c2nc(N3CCOCC3)c3cnn(C4CCN(C(=O)c5cccnc5)CC4)c3n2)cc1 [Compound 548] , and I need its recorded IC50. 541

I have this compound here, CNC(=O)Nc1ccc(-c2nc(N3CCOCC3)c3cnn(C4CCN(C(=O)c5ccccc5C)CC4)c3n2)cc1 [Example 356] , and I need its recorded IC50. 93

I have this compound here, `O=CNc1ccc(-c2nc(N3CCOCC3)c3cnn(-c4ccccc4)c3n2)cc1` , and I need its recorded IC50. 122

I have this compound here, `CCOC(=O)N1CCC(n2ncc3c(N4CCOC[C@@H]4C)nc(-c4ccc(NC(=O)Nc5ccncc5)cc4)nc32)CC1` , and I need its recorded IC50. 18
